compounds and their reported fold change (FC)
Molecular target: Hexokinase-4 (Homo sapiens) (UniProt P35557)
Sequence (whole entry): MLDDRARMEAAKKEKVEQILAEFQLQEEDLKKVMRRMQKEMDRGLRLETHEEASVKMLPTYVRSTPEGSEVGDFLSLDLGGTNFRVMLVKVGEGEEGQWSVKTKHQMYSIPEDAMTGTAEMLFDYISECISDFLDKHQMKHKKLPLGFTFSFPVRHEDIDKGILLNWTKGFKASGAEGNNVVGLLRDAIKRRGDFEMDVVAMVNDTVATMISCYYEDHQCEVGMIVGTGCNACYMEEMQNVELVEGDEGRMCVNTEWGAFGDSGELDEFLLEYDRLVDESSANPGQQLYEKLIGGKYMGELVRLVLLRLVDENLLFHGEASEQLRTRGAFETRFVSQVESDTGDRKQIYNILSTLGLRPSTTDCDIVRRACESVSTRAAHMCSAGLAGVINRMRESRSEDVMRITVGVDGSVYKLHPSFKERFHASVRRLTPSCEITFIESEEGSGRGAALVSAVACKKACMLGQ
Test: Activation of recombinant human glucokinase assessed as increase in enzyme Vmax for glucose by G6PDH/NADP coupled assay relative to control

[
  {
    "structure_smiles": "O=C(O)c1ccc(NC(=O)[C@H](CC2CCOCC2)n2cnc(S(=O)(=O)C3CC3)c2)nc1",
    "system_under_test": "Hexokinase-4 (Homo sapiens) (UniProt P35557)",
    "fold change (FC)": 1.21
  },
  {
    "structure_smiles": "O=C(O)c1ccc(NC(=O)[C@H](CC2CCCC2)n2cnc(S(=O)(=O)C3CC3)c2)nc1",
    "system_under_test": "Hexokinase-4 (Homo sapiens) (UniProt P35557)",
    "fold change (FC)": 1.68
  },
  {
    "structure_smiles": "O=C(O)c1ccc(NC(=O)[C@H](CC2CCCCC2)n2cnc(S(=O)(=O)C3CCC3)c2)nc1",
    "system_under_test": "Hexokinase-4 (Homo sapiens) (UniProt P35557)",
    "fold change (FC)": 1.25
  },
  {
    "structure_smiles": "O=C(O)c1ccc(NC(=O)[C@H](CC2CCCC2)n2cnc(S(=O)(=O)C3CCC3)c2)nc1",
    "system_under_test": "Hexokinase-4 (Homo sapiens) (UniProt P35557)",
    "fold change (FC)": 1.35
  },
  {
    "structure_smiles": "O=C(O)c1ccc(NC(=O)[C@H](CC2CCCCC2)n2cnc(S(=O)(=O)C3CC3)c2)nc1",
    "system_under_test": "Hexokinase-4 (Homo sapiens) (UniProt P35557)",
    "fold change (FC)": 1.5
  }
]

----------
Experiment: Apparent permeability in RRCK cells at pH 5.5
Assay type: ADME, cell-based, Canis lupus familiaris, MDCKII-LE
Conditions: dog, MDCK

[
  {
    "structure_smiles": "O=C(O)c1ccc(NC(=O)[C@H](CC2CCCC2)n2cnc(S(=O)(=O)C3CCC3)c2)nc1",
    "endpoint_unit": "×10⁻⁶ cm/s",
    "Papp": 1.4
  }
]

----------
Experiment: Volume of distribution at steady state in dog at 1 mg/kg, iv
Type: ADME, organism-based, Canis lupus familiaris
Set-up: dose 1 mg/kg, route intravenous
Conditions: in vivo, read-out: Vdss

[
  {
    "structure_smiles": "O=C(O)c1ccc(NC(=O)[C@H](CC2CCCC2)n2cnc(S(=O)(=O)C3CCC3)c2)nc1",
    "Vd, L/kg": 0.4
  }
]
